MEASURED TARGET: T1, human GPC3 on SK-HEP-1-huGPC3 cells (human, UniProt P51654 25-554)
T1 construct: whole, on cells
TEST NAME: flow cytometry on SK-HEP-1-huGPC3 cells, PE anti-mouse IgG Fc; note: test concentration or dose not given here
Below, each entry is listed with its recorded Positive population, %.

BINDER	UNIT LABEL	Positive population, %
LAb19310 (antibody, V domains shown, Mouse monoclonal antibody purified from hybridoma supernatant) VH: EVQLQQSGPELVKPGPSLKISCKASGYSFTVSPMTWVKQSHGKNLEWIGLIHPYNGDTTYNQKFKGKATLTVDKSSSTAYMELLSLTSEDSAVYYCARWGNYYPYAMDYWGQGTSVTVSS VL: DIVMTQSQKFMSTSVGDRVSITCKASQNVRSTVAWYQQKPGQSPKALIYLTSNRHTGVPDRFTGSGSGTDFTLTISNVQSEDLADYFCLQHWNYPYTFGGGTKLEIK	%	91.3
LAb19301 (antibody, V domains shown, Mouse monoclonal antibody purified from hybridoma supernatant) VH: DVQLQESGPDLVKPSQSLSLTCTVTGYSITSGFSWHWIRQFPGHKLEWMGFMQYSGNTNYNPSLKSRISFTRDTSKNQFFLQLKSVTPEDTATYYCARREEGAWFAYWGQGTLVTVSA VL: DVVMTQTPLSLPVSLGDQASISCGSSQSLVHSNGNTYLHWYLQKPGQSPKLLIYKVSNRFSGVPDRFSGSGSGTDFTLKISRVEAEDLGVYFCSQSTHFPFTFGSGTKLEIK	%	72.6
LAb19304 (antibody, V domains shown, Mouse monoclonal antibody purified from hybridoma supernatant) VH: QVQLQQSGAELVRPGASVTLSCKASGYTFTAYEMHWVKQTPVHGLEWIGGIDPETGNTAYSQKFKGKATLTADKSSSTAYMEVRSLTSEDSAVYYCSRYYSFAYWGQGTLVTVSA VL: DVLMTQTPLSLPVSLGDQASISCRSSQTIVHSNGNTYLEWYLQKPGQSPKLLIYKVSNRFSGVPDRFSGSGSGTDFTLKISRVEAEDLGVYYCFQVSHVPYTFGGGTKLEIK	%	91.9
LAb19305 (antibody, V domains shown, Mouse monoclonal antibody purified from hybridoma supernatant) VH: QVQLQQSGAELVRPGASVTLSCKASGYTFTAYEMHWVKQTPVYGLEWIGGIDPETGNTAYSQNFKGKATLTADKSSSTAYMEVRSLTSEDSAVYYCSRYYSFAYWGQGTLVTVSA VL: DVLMTQTPLSLPVSLGDQASISCRSSQTIVHSNGNTYLEWYLQKPGQSPKLLIYKVSNRFSGVPDRFSGSGSGTDFTLKISRVEAEDLGVYYCFQVSHVPYTFGGGTKLEIK	%	92.6
LAb19302 (antibody, V domains shown, Mouse monoclonal antibody purified from hybridoma supernatant) VH: AVQLVESGGGLVRPGGSLKLSCAASGFAFSTYGMSWVRQTPETRLEWVAYISSGGATTYYPDSVKGRFTISRDNAKNTLYLQMSSLKSEDTAMYYCASLSIMIRGWFAYWGQGTLVTVSA VL: DVVMTQTPLSLPVSLGDQASISCRSSQSLVHSNGNTYLHWYLQKPGQSPKVLIYKVSNRFSGVPDRFSGSGSGTDFTLKISRVEAEDLGVYFCSQSTHVPYTFGGGTKLEIK	%	91.5
